target: UniProt:O75116; experiment: radiometric filter-binding kinase assay, Kinase HotSpot; details: compound 0.5 µM; ATP 10 µM
Sequence (O75116 whole entry, looked up): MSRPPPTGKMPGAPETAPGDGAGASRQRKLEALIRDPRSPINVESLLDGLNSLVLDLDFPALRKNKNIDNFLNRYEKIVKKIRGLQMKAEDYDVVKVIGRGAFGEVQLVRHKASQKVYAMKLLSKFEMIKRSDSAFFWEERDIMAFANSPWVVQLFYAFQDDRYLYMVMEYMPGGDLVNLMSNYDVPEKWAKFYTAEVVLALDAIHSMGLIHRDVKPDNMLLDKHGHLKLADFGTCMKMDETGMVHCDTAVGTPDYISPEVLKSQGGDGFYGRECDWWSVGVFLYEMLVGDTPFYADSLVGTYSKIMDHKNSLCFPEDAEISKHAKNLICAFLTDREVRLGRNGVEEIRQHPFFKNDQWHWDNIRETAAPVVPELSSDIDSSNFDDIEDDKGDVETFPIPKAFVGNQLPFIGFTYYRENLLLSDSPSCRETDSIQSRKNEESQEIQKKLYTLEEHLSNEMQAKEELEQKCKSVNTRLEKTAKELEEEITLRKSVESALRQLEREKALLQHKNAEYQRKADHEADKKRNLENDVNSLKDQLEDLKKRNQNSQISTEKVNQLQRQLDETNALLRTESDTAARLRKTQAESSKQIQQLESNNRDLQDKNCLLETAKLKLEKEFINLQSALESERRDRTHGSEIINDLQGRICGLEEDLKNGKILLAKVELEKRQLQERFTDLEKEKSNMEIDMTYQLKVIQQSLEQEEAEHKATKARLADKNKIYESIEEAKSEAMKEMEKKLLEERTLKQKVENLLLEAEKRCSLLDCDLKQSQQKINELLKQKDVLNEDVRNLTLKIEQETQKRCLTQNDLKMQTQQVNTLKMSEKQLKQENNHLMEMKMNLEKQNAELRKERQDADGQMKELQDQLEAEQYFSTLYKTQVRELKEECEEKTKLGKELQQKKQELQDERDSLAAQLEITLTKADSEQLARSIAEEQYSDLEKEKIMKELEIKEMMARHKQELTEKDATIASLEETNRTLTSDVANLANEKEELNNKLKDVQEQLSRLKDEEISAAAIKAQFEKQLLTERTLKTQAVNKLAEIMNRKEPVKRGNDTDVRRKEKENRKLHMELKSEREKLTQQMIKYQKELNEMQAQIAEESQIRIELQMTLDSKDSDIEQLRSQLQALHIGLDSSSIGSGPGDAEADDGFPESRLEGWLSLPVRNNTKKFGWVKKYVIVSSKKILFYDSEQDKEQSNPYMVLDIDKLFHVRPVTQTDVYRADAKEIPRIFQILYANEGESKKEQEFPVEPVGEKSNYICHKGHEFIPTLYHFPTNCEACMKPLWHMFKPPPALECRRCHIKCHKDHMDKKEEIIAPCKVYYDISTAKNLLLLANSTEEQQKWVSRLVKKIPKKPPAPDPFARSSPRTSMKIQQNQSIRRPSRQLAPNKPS
residual activity values, listed per item
ENDPOINT: residual activity

O=C1Nc2ccc(Br)cc2/C1=C\c1cc2c([nH]1)CCCC2; 92.8%
Cc1nc(-c2ccccc2)c(-c2ccncc2)o1; 97.6%
CN(C)S(=O)(=O)c1ccc2c(c1)/C(=C/c1cc3c([nH]1)CCCC3)C(=O)N2; 88.2%
CO[C@@H]1[C@H](N(C)C(=O)c2ccccc2)C[C@H]2O[C@]1(C)n1c3ccccc3c3c4c(c5c6ccccc6n2c5c31)C(=O)NC4; 80.9%
COc1cc2ncnc(Nc3ccc(OCc4ccccc4)cc3)c2cc1OC; 96%
N#C/C(=C\c1ccc(O)c(O)c1)C(=O)NCc1ccccc1; 94%
N#Cc1c[nH]c2c[nH]/c(=N\Cc3cccnc3)cc2/c1=N\c1ccc(F)c(Cl)c1; 97.1%
CN(C)CCCn1cc(C2=C(c3c[nH]c4ccccc34)C(=O)NC2=O)c2ccccc21; 113%
COc1ccc2c(c1)c(C1=C(c3c[nH]c4ccccc34)C(=O)NC1=O)cn2CCCN(C)C; 89.2%
CN(C)c1ccc(/C=C2\C(=O)Nc3ccccc32)cc1; 95.2%
O=C1C(Cl)=C(N2C(=O)CCC2=O)C(=O)c2ccccc21; 91.5%
COc1ccc(C(=O)Nc2sc3c(c2C(N)=O)CCCC3)cc1OC; 92.3%
Fc1ccc(-c2nc3n(c2-c2ccncc2)CCS3)cc1; 99.1%
O=C(c1cc2cc(O)ccc2[nH]1)c1cc2cc(O)ccc2[nH]1; 92.9%

====

biological target: HIPK2 (human) (UniProt Q9H2X6); test: radiometric filter-binding kinase assay, Kinase HotSpot; settings: compound 0.5 µM; ATP 10 µM
ENDPOINT: residual activity (%)

O=C(c1cc2cc(O)ccc2[nH]1)c1cc2cc(O)ccc2[nH]1; 102
C[C@@H]1CCN(C(=O)CC#N)C[C@@H]1N(C)c1ncnc2[nH]ccc12; 96.9
Cc1cncc2cccc(S(=O)(=O)N3CCCN(C(=O)CN)C[C@H]3C)c12; 90.2
N#Cc1c[nH]c2c[nH]/c(=N\Cc3cccnc3)cc2/c1=N\c1ccc(F)c(Cl)c1; 93.2
N#C/C(=C\c1ccc(O)c(O)c1)C(=O)NCc1ccccc1; 101
O=C1c2ccccc2-c2nc3nnnn3nc21; 107
O=C1Nc2ccc(Br)cc2/C1=C\c1cc2c([nH]1)CCCC2; 91
Cc1cccc(-c2nc(C(C)(C)C)[nH]c2-c2ccc3c(c2)OCO3)n1; 101
COc1ccc(S(=O)(=O)N(CCO)c2ccccc2CN(C)C/C=C/c2ccc(Cl)cc2)cc1; 107
COc1ccc(C(=O)Nc2sc3c(c2C(N)=O)CCCC3)cc1OC; 107

====

biological target: MYLK (human) (UniProt Q15746); test: radiometric filter-binding kinase assay, Kinase HotSpot; settings: compound 0.5 µM; ATP 10 µM
Sequence (Q15746 whole entry, looked up): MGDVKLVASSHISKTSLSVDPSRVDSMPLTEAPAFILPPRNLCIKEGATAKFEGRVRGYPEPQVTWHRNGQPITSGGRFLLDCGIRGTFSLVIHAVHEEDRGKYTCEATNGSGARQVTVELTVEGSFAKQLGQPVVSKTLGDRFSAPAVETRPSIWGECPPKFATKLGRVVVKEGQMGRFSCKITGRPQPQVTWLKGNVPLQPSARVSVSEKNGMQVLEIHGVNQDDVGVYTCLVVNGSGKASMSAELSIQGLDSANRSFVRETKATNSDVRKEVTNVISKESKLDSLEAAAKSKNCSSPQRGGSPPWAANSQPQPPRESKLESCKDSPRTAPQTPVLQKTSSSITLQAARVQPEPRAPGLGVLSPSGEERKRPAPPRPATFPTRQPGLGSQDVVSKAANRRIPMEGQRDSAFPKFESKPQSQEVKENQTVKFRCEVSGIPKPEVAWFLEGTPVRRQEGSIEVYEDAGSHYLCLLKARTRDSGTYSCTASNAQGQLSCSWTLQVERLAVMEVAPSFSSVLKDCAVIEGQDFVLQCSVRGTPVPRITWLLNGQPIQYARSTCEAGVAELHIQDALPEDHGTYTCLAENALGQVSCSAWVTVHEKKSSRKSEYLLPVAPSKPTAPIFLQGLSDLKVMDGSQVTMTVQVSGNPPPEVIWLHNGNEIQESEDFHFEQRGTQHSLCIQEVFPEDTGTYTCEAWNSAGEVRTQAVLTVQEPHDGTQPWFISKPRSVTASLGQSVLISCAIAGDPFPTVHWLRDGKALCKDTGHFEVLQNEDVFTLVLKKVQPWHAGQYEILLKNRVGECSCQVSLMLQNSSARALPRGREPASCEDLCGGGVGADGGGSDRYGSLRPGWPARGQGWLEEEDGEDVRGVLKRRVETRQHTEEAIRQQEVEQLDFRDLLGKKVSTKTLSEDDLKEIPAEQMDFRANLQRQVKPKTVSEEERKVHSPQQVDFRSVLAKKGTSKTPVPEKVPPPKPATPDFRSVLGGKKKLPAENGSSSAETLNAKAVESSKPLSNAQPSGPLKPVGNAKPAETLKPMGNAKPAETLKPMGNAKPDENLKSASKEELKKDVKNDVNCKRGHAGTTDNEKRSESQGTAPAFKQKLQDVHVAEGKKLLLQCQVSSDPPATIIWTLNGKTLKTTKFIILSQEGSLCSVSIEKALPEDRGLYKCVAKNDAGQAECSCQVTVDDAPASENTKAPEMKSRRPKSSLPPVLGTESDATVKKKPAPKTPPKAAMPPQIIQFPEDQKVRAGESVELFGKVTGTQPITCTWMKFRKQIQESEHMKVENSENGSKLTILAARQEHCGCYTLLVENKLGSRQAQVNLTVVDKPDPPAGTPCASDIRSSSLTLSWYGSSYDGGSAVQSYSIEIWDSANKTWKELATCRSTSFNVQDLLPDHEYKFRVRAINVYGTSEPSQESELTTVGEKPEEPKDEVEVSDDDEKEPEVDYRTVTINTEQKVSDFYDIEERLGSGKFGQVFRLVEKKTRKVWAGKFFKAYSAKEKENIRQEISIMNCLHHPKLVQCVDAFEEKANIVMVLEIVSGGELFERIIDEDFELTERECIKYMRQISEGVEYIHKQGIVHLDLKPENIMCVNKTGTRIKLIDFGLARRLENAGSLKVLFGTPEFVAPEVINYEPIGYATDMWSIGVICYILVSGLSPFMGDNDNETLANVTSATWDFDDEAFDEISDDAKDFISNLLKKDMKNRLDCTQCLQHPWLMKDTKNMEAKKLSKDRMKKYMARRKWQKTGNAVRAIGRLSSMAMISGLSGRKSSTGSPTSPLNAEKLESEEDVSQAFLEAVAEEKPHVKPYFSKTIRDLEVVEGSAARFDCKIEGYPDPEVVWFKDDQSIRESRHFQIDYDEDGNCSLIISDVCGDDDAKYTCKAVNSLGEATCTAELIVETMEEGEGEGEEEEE
# Lookup of reported residual activity keyed by entry
ENDPOINT: residual activity (%)

O=C1Nc2ccc(Br)cc2/C1=C\c1cc2c([nH]1)CCCC2; 95.7
Cc1cccc(-c2nc(C(C)(C)C)[nH]c2-c2ccc3c(c2)OCO3)n1; 105
CS(=O)(=O)CCNCc1ccc(-c2ccc3ncnc(Nc4ccc(OCc5cccc(F)c5)c(Cl)c4)c3c2)o1; 90.7
COc1cc2ncnc(Nc3ccc(OCc4ccccc4)cc3)c2cc1OC; 95
Ic1cccc(CSc2nnc(-c3ccncc3)o2)c1; 99.1

====

system: MKNK1 (human), Q9BUB5 [T385D; 165-205 del]; experiment: radiometric filter-binding kinase assay, Kinase HotSpot; conditions: compound 0.5 µM; ATP 10 µM
Sequence (Q9BUB5 whole entry, looked up, stated change not applied): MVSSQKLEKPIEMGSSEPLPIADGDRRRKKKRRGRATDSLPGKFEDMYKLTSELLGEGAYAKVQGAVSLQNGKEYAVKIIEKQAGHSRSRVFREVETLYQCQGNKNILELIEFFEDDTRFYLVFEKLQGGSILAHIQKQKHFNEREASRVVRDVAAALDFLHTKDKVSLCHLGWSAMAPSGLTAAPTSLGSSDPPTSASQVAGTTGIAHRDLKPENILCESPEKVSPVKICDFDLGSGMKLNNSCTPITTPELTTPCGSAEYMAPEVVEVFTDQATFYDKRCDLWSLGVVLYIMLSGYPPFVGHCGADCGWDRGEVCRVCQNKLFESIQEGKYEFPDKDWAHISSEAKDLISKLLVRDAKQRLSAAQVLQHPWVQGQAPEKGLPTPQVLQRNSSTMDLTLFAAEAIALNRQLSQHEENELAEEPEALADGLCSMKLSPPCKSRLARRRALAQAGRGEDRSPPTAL
ENDPOINT: residual activity (%)

O=C1C(Cl)=C(N2C(=O)CCC2=O)C(=O)c2ccccc21; 135
O=C1NC(=O)/C(=C/c2ccc3c(c2)OC(F)(F)O3)S1; 93.1
CC(C)(C)c1cc(C=C(C#N)C#N)cc(Br)c1O; 95.9
O=C1NC(=O)c2c1c1c3ccccc3n3c1c1c2c2ccccc2n1C1CCC3O1; 48.6
COc1ccc(C(=O)Nc2sc3c(c2C(N)=O)CCCC3)cc1OC; 98.2
N#CC(C#N)=C(N)/C(C#N)=C/c1ccc(O)cc1; 77.2
Oc1ccc(Nc2nc(-c3ccc(Cl)cc3)cs2)cc1; 98.9
CC(C)n1cnc2c(Nc3cccc(Cl)c3)nc(NCCO)nc21; 98.7
NC(=O)c1cccc(-c2cc(Nc3ccc(OC(F)(F)F)cc3)ncn2)c1; 95.9
Cc1[nH]c(/C=C2\C(=O)Nc3ccc(S(=O)(=O)N(C)c4cccc(Cl)c4)cc32)c(C)c1C(=O)N1CCN(C)CC1; 105
Cn1cc(/C=C2\C(=O)Nc3ccc(S(N)(=O)=O)cc32)c2ccccc21; 74.1

====

Known residual activity of a selection of compounds
molecular target: AKT2 (human) (UniProt P31751); assay: radiometric filter-binding kinase assay, Kinase HotSpot; details: compound 0.5 µM; ATP 10 µM
Sequence (P31751 whole entry, looked up): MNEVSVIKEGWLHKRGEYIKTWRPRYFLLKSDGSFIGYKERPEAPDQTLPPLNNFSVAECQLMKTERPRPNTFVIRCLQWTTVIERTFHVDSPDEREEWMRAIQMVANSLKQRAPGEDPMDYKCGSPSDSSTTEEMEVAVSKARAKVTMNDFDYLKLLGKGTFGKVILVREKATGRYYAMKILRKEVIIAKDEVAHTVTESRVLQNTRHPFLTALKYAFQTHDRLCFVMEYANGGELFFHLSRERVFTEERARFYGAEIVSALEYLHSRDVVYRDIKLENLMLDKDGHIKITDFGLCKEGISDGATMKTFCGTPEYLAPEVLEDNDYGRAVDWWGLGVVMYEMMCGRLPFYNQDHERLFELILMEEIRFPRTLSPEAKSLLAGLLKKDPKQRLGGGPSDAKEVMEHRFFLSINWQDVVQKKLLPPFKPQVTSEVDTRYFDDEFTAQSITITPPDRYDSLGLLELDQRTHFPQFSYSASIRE
ENDPOINT: residual activity (%)

COc1ccc2c(c1)/C(=C/c1cnc[nH]1)C(O)=N2; 106
COc1cc(Nc2c(C#N)cnc3cc(OCCCN4CCN(C)CC4)c(OC)cc23)c(Cl)cc1Cl; 104
CS(=O)(=O)CCNCc1ccc(-c2ccc3ncnc(Nc4ccc(OCc5cccc(F)c5)c(Cl)c4)c3c2)o1; 105
N#C/C(=C\c1ccc(O)c(O)c1)C(=O)NCc1ccccc1; 98.4
Cn1c2ccccc2c2c3c(c4c5ccccc5n(CCC#N)c4c21)CNC3=O; 110
COc1ccc(C(=O)Nc2sc3c(c2C(N)=O)CCCC3)cc1OC; 97
Ic1cccc(CSc2nnc(-c3ccncc3)o2)c1; 101

====

target: RPS6KA6 KD1 KD2 (human) (UniProt Q9UK32); assay: radiometric filter-binding kinase assay, Kinase HotSpot; settings: compound 0.5 µM; ATP 10 µM
Sequence (Q9UK32 whole entry, looked up): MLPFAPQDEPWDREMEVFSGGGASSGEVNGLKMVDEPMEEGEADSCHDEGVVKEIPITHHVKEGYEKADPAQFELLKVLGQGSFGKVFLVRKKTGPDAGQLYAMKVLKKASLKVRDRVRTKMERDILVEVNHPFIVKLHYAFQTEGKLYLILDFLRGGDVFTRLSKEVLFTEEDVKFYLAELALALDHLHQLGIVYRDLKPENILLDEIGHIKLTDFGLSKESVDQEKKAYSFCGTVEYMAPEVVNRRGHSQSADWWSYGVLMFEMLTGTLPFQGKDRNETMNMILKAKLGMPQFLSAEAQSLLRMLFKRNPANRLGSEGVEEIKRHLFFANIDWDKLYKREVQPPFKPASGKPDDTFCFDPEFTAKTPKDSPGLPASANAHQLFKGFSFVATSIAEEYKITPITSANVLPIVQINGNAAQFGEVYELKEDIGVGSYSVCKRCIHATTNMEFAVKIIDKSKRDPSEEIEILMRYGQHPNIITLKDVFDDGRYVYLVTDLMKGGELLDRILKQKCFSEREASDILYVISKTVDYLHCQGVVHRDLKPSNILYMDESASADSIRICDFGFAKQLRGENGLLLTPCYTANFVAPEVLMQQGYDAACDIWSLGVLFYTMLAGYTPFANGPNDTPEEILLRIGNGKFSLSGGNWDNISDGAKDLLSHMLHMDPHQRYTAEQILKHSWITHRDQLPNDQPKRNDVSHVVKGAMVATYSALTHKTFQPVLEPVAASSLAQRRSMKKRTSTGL
Catalogue of compounds with associated residual activity
ENDPOINT: residual activity

CN(C)c1ccc(/C=C2\C(=O)Nc3ccccc32)cc1; 93.9%
O=C1Nc2ccc(Br)cc2/C1=C\c1cc2c([nH]1)CCCC2; 78.6%
Cc1nc(-c2ccccc2)c(-c2ccncc2)o1; 115%
O=C(c1cc2cc(O)ccc2[nH]1)c1cc2cc(O)ccc2[nH]1; 26.7%
c1ccc2c(-c3ccncc3)c[nH]c2c1; 112%
Fc1ccc(-c2nc3n(c2-c2ccncc2)CCS3)cc1; 115%
Cn1c2ccccc2c2c3c(c4c5ccccc5n(CCC#N)c4c21)CNC3=O; 4.2%
Cc1cccc(-c2nc(C(C)(C)C)[nH]c2-c2ccc3c(c2)OCO3)n1; 107%
O=C1NC(=O)c2c1c1c3ccccc3[nH]c1n1cncc21; 33.4%
NC(=O)c1cccc(-c2cc(Nc3ccc(OC(F)(F)F)cc3)ncn2)c1; 94.2%
COc1ccc2c(c1)c(C1=C(c3c[nH]c4ccccc34)C(=O)NC1=O)cn2CCCN(C)C; 4.52%

====

target: JAK3 JH1 JH2 (human) (UniProt P52333); experiment: radiometric filter-binding kinase assay, Kinase HotSpot; conditions: compound 0.5 µM; ATP 10 µM
residual activity under 90% gets fulfilled, anything at or over 90% gets not fulfilled.

CO[C@@H]1[C@H](N(C)C(=O)c2ccccc2)C[C@H]2O[C@]1(C)n1c3ccccc3c3c4c(c5c6ccccc6n2c5c31)C(=O)NC4; fulfilled
O=C1C(Cl)=C(N2C(=O)CCC2=O)C(=O)c2ccccc21; not fulfilled
c1ccc2c(-c3ccncc3)c[nH]c2c1; not fulfilled
Ic1cccc(CSc2nnc(-c3ccncc3)o2)c1; not fulfilled
COc1ccc2c(c1)c(C1=C(c3c[nH]c4ccccc34)C(=O)NC1=O)cn2CCCN(C)C; not fulfilled
N#Cc1c[nH]c2c[nH]/c(=N\Cc3cccnc3)cc2/c1=N\c1ccc(F)c(Cl)c1; fulfilled
O=C(c1cc2cc(O)ccc2[nH]1)c1cc2cc(O)ccc2[nH]1; not fulfilled
Cn1c2ccccc2c2c3c(c4c5ccccc5n(CCC#N)c4c21)CNC3=O; fulfilled
Cc1cncc2cccc(S(=O)(=O)N3CCCN(C(=O)CN)C[C@H]3C)c12; not fulfilled
CC(C)(C)c1cc(C=C(C#N)C#N)cc(Br)c1O; not fulfilled
CN(C)c1ccc(/C=C2\C(=O)Nc3ccccc32)cc1; not fulfilled
O=C1NC(=O)c2c1c1c3ccccc3[nH]c1n1cncc21; not fulfilled
CN(C)S(=O)(=O)c1ccc2c(c1)/C(=C/c1cc3c([nH]1)CCCC3)C(=O)N2; fulfilled
CS(=O)(=O)CCNCc1ccc(-c2ccc3ncnc(Nc4ccc(OCc5cccc(F)c5)c(Cl)c4)c3c2)o1; not fulfilled
COc1ccc2c(c1)/C(=C/c1cnc[nH]1)C(O)=N2; fulfilled
COc1ccc(S(=O)(=O)N(CCO)c2ccccc2CN(C)C/C=C/c2ccc(Cl)cc2)cc1; not fulfilled
COc1ccc(Cl)cc1NC(=O)Nc1cc(C)nc2ccccc12; not fulfilled
COc1ccc(C(=O)Nc2sc3c(c2C(N)=O)CCCC3)cc1OC; not fulfilled
